meta.source: patent US9315522B2

Attribute: IC50
Subject Of Test: UniProt:Q6GI75
Sequence (Q6GI75 whole entry): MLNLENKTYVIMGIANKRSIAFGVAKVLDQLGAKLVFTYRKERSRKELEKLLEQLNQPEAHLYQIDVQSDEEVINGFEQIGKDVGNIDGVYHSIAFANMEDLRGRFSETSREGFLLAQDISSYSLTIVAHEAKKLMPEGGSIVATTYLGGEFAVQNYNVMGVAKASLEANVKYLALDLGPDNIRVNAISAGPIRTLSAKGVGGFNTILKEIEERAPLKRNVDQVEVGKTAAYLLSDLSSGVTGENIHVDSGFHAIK
Experiment Summary: Staphylococcus aureus FabI enzyme inhibition assay
Type: biochemical
Condition Description: read-out: FabI (300.235) IC50 (converted)
Protocol: Y.1 FabI Enzyme Inhibition: Staphylococcus aureus FabI Enzyme Inhibition Assay FabI enzyme inhibition assays were carried out in half-area, 384-well microtitre plates. Compounds were evaluated in 40-μl assay mixtures containing 100 mM NaADA, pH 6.5 (ADA=N-[2-acetamido]-2iminodiacetic acid), 250 μM crotonoyl-CoA, 625 μM NADH and 50 μg/ml S. aureus ATCC 29213 FabI. […] The consumption of NADH was monitored by measuring the change in absorbance at 340. […]

{"Molecule": "Cn1nccc1C1=CC2CN(C(=O)/C=C/c3cnc4c(c3)COCC(=O)N4)CC2C1 (stereo not shown)", "Subject Of Test": "UniProt:Q6GI75", "Unit Abbrev": "µM", "IC50": 1.18}
{"Molecule": "O=C1CNCc2cc(/C=C/C(=O)N3CC4C=C(c5ccncc5)CC4C3)cnc2N1 (stereo not shown)", "Subject Of Test": "UniProt:Q6GI75", "Unit Abbrev": "µM", "IC50": 0.971}
{"Molecule": "O=C1COc2cc(/C=C/C(=O)N3CC4C=C(c5ccncc5)CC4C3)cnc2N1 (stereo not shown)", "Subject Of Test": "UniProt:Q6GI75", "Unit Abbrev": "µM", "IC50": 1.13}
{"Molecule": "O=C1COCc2cc(/C=C/C(=O)N3C[C@H]4CC(c5ccccc5)=C[C@H]4C3)cnc2N1 (single isomer, unassigned)", "Subject Of Test": "UniProt:Q6GI75", "Unit Abbrev": "µM", "IC50": 1.47}
{"Molecule": "O=C1COCc2cc(/C=C/C(=O)N3CC4C=C(c5ccsc5)CC4C3)cnc2N1 (stereo not shown)", "Subject Of Test": "UniProt:Q6GI75", "Unit Abbrev": "µM", "IC50": 1.03}
{"Molecule": "CN1CC(=O)Nc2ncc(/C=C/C(=O)N3C[C@@H]4CN(c5cccnc5)C[C@@H]4C3)cc2C1", "Subject Of Test": "UniProt:Q6GI75", "Unit Abbrev": "µM", "IC50": 7.41}
{"Molecule": "CN1CC(=O)Nc2ncc(/C=C/C(=O)N3C[C@@H]4CN(c5ccccc5)C[C@@H]4C3)cc2C1 [compound 58]", "Subject Of Test": "UniProt:Q6GI75", "Unit Abbrev": "µM", "IC50": 1.7}
{"Molecule": "CN1CCN2C(=O)c3cc(/C=C/C(=O)N4CC5C=C(c6ccccc6)CC5C4)cnc3NC(=O)C2C1 (stereo not shown)", "Subject Of Test": "UniProt:Q6GI75", "Unit Abbrev": "µM", "IC50": 0.993}
{"Molecule": "COc1ccc(C(=O)Nc2ccc(/C=C/C(=O)N3CC4C=C(c5ccccc5)CC4C3)cn2)c(OC)n1 (stereo not shown)", "Subject Of Test": "UniProt:Q6GI75", "Unit Abbrev": "µM", "IC50": 14.8}
{"Molecule": "COc1ccccc1N1C[C@H]2CN(C(=O)/C=C/c3cnc4c(c3)CN(C)CC(=O)N4)C[C@H]2C1", "Subject Of Test": "UniProt:Q6GI75", "Unit Abbrev": "µM", "IC50": 2.23}
{"Molecule": "O=C1CNCc2cc(/C=C/C(=O)N3CC4C=C(c5ccccc5)CC4C3)cnc2N1 (stereo not shown) [Cpd. No. 38]", "Subject Of Test": "UniProt:Q6GI75", "Unit Abbrev": "µM", "IC50": 1.05}
{"Molecule": "CC(=O)N1CCN2Cc3cc(/C=C/C(=O)N4CC5C=C(c6ccncc6)CC5C4)cnc3NC(=O)C2C1 (stereo not shown)", "Subject Of Test": "UniProt:Q6GI75", "Unit Abbrev": "µM", "IC50": 1.34}
{"Molecule": "N#Cc1cc(NC(=O)c2cccnc2)ncc1/C=C/C(=O)N1CC2C=C(c3ccccc3)CC2C1 (stereo not shown)", "Subject Of Test": "UniProt:Q6GI75", "Unit Abbrev": "µM", "IC50": 20.9}
{"Molecule": "O=C1Nc2ncc(/C=C/C(=O)N3CC4C=C(c5ccncc5)CC4C3)cc2CN2CCOCC12 (stereo not shown)", "Subject Of Test": "UniProt:Q6GI75", "Unit Abbrev": "µM", "IC50": 0.743}
{"Molecule": "Nc1ccc(/C=C/C(=O)N2CC3C=C(c4ccccc4)CC3C2)cn1 (stereo not shown)", "Subject Of Test": "UniProt:Q6GI75", "Unit Abbrev": "µM", "IC50": 2.35}
{"Molecule": "O=C1CC2CCCCN2Cc2cc(/C=C/C(=O)N3C[C@@H]4CC(c5ccccc5)=C[C@@H]4C3)cnc2N1 (stereo partly shown)", "Subject Of Test": "UniProt:Q6GI75", "Unit Abbrev": "µM", "IC50": 0.832}
{"Molecule": "CC(C)C1Oc2cc(/C=C/C(=O)N3CC4C=C(c5ccncc5)CC4C3)cnc2NC1=O (stereo not shown)", "Subject Of Test": "UniProt:Q6GI75", "Unit Abbrev": "µM", "IC50": 0.859}
{"Molecule": "COc1cncc(C(=O)Nc2ccc(/C=C/C(=O)N3CC4C=C(c5ccccc5)CC4C3)cn2)c1 (stereo not shown)", "Subject Of Test": "UniProt:Q6GI75", "Unit Abbrev": "µM", "IC50": 2.4}
{"Molecule": "COc1cncc(C(=O)Nc2ccc(/C=C/C(=O)N3CC4C=C(c5nccs5)CC4C3)cn2)c1 (stereo not shown)", "Subject Of Test": "UniProt:Q6GI75", "Unit Abbrev": "µM", "IC50": 0.718}
{"Molecule": "COc1cncc(C(=O)Nc2ccc(/C=C/C(=O)N3CC4C=C(c5ccnn5C)CC4C3)cn2)c1 (stereo not shown)", "Subject Of Test": "UniProt:Q6GI75", "Unit Abbrev": "µM", "IC50": 0.659}
{"Molecule": "O=C(Nc1ncc(/C=C/C(=O)N2CC3C=C(c4ccccc4)CC3C2)cc1CN1CCOCC1)c1cccnc1 (stereo not shown)", "Subject Of Test": "UniProt:Q6GI75", "Unit Abbrev": "µM", "IC50": 2.95}
{"Molecule": "Cn1nccc1C1=CC2CN(C(=O)/C=C/c3cnc4c(c3)CN3CCOCC3C(=O)N4)CC2C1 (stereo not shown)", "Subject Of Test": "UniProt:Q6GI75", "Unit Abbrev": "µM", "IC50": 0.955}
{"Molecule": "Cc1cc(N)ncc1/C=C/C(=O)N1CC2C=C(c3ccccc3)CC2C1 (stereo not shown)", "Subject Of Test": "UniProt:Q6GI75", "Unit Abbrev": "µM", "IC50": 8.31}
{"Molecule": "O=C(Cc1ccncc1)Nc1ccc(/C=C/C(=O)N2CC3C=C(c4ccccc4)CC3C2)cn1 (stereo not shown)", "Subject Of Test": "UniProt:Q6GI75", "Unit Abbrev": "µM", "IC50": 1.73}
{"Molecule": "COc1cncc(C(=O)Nc2ccc(/C=C/C(=O)N3CC4C=C(c5ccsc5)CC4C3)cn2)c1 (stereo not shown)", "Subject Of Test": "UniProt:Q6GI75", "Unit Abbrev": "µM", "IC50": 1.29}
{"Molecule": "COC(=O)CCC(=O)Nc1ccc(/C=C/C(=O)N2CC3C=C(c4ccccc4)CC3C2)cn1 (stereo not shown)", "Subject Of Test": "UniProt:Q6GI75", "Unit Abbrev": "µM", "IC50": 2.56}
{"Molecule": "O=C1Nc2ncc(/C=C/C(=O)N3CC4C=C(c5ccccc5)CC4C3)cc2CN2CCOCC12 (stereo not shown) [compound 69]", "Subject Of Test": "UniProt:Q6GI75", "Unit Abbrev": "µM", "IC50": 1.03}
{"Molecule": "CC(=O)Nc1ccc(/C=C/C(=O)N2CC3C=C(c4ccccc4)CC3C2)cn1 (stereo not shown)", "Subject Of Test": "UniProt:Q6GI75", "Unit Abbrev": "µM", "IC50": 1.07}
{"Molecule": "O=C1COCc2cc(/C=C/C(=O)N3CC4C=C(c5ccncc5)CC4C3)cnc2N1 (stereo not shown)", "Subject Of Test": "UniProt:Q6GI75", "Unit Abbrev": "µM", "IC50": 1.02}

###

Attribute: melting point

{"Compound": "O=C1Nc2ncc(/C=C/C(=O)N3CC4C=C(c5ccsc5)CC4C3)cc2CO1 (stereo not shown) [compound 35]", "Prefix Operator": ">", "melting point / °C": 250}
{"Compound": "CN1CCN2C(=O)c3cc(/C=C/C(=O)N4CC5C=C(c6ccccc6)CC5C4)cnc3NC(=O)C2C1 (stereo not shown) [compound 82]", "Prefix Operator": ">", "melting point / °C": 270}
{"Compound": "O=C1COCc2cc(/C=C/C(=O)N3CC4C=C(c5ccsc5)CC4C3)cnc2N1 (stereo not shown) [compound 41]", "Prefix Operator": "=", "melting point / °C": 152}
{"Compound": "O=C(Nc1ccc(/C=C/C(=O)N2CC3C=C(c4ccccc4)CC3C2)cn1)c1cccnc1 (stereo not shown) [Cpd. No. 3]", "Prefix Operator": "=", "melting point / °C": 238}
{"Compound": "O=C(Nc1ccc(/C=C/C(=O)N2CC3C=C(c4ccccc4)CC3C2)cn1)c1ccoc1 (stereo not shown) [compound 2]", "Prefix Operator": "=", "melting point / °C": 202}
{"Compound": "Nc1ccc(/C=C/C(=O)N2CC3C=C(c4ccccc4)CC3C2)cn1 (stereo not shown) [compound 15]", "Prefix Operator": "=", "melting point / °C": 236}
{"Compound": "O=C1Nc2ncc(/C=C/C(=O)N3CC4C=C(c5ccncc5)CC4C3)cc2CO1 (stereo not shown) [compound 55]", "Prefix Operator": "=", "melting point / °C": 156}
{"Compound": "Cc1cc(C(=O)Nc2ccc(/C=C/C(=O)N3CC4C=C(c5ccccc5)CC4C3)cn2)c(C)o1 (stereo not shown) [compound 19]", "Prefix Operator": "=", "melting point / °C": 184.41}
{"Compound": "Cn1nccc1C1=CC2CN(C(=O)/C=C/c3cnc4c(c3)CNCC(=O)N4)CC2C1 (stereo not shown) [compound 57]", "Prefix Operator": "=", "melting point / °C": 228}
{"Compound": "O=C(Nc1ccc(/C=C/C(=O)N2CC3C=C(c4ccccc4)CC3C2)cn1)c1ccncc1 (stereo not shown) [compound 12]", "Prefix Operator": "=", "melting point / °C": 184}
{"Compound": "CN1CC(=O)Nc2ncc(/C=C/C(=O)N3C[C@@H]4CN(c5ccccc5)C[C@@H]4C3)cc2C1 [compound 60]", "Prefix Operator": "=", "melting point / °C": 178}
{"Compound": "CC(C)C1Oc2cc(/C=C/C(=O)N3CC4C=C(c5nccs5)CC4C3)cnc2NC1=O (stereo not shown) [compound 64]", "Prefix Operator": "=", "melting point / °C": 223.55}
{"Compound": "COc1cncc(C(=O)Nc2ccc(/C=C/C(=O)N3CC4C=C(c5ccsc5)CC4C3)cn2)c1 (stereo not shown) [compound 33]", "Prefix Operator": "=", "melting point / °C": 205}
{"Compound": "COc1cncc(C(=O)Nc2ccc(/C=C/C(=O)N3CC4C=C(c5ccnn5C)CC4C3)cn2)c1 (stereo not shown) [compound 31]", "Prefix Operator": "=", "melting point / °C": 89.36}
{"Compound": "CC(C)C1Oc2cc(/C=C/C(=O)N3CC4C=C(c5ccncc5)CC4C3)cnc2NC1=O (stereo not shown) [compound 65]", "Prefix Operator": "=", "melting point / °C": 113.11}
{"Compound": "O=C1Nc2ncc(/C=C/C(=O)N3CC4C=C(c5ccccc5)CC4C3)cc2C(=O)N2CCOCC12 (stereo not shown) [compound 76]", "Prefix Operator": "=", "melting point / °C": 278.12}
{"Compound": "Cc1cncc(C(=O)Nc2ccc(/C=C/C(=O)N3CC4C=C(c5ccsc5)CC4C3)cn2)c1 (stereo not shown) [compound 5]", "Prefix Operator": "=", "melting point / °C": 208.43}
{"Compound": "Cn1nccc1C1=CC2CN(C(=O)/C=C/c3cnc4c(c3)CN3CCOCC3C(=O)N4)CC2C1 (stereo not shown) [compound 85]", "Prefix Operator": "=", "melting point / °C": 226}
{"Compound": "O=C1Nc2ncc(/C=C/C(=O)N3CC4C=C(c5ccsc5)CC4C3)cc2CN2CCOCC12 (stereo not shown) [compound 70]", "Prefix Operator": ">", "melting point / °C": 250}
{"Compound": "O=C1COc2cc(/C=C/C(=O)N3CC4C=C(c5ccncc5)CC4C3)cnc2N1 (stereo not shown) [compound 36]", "Prefix Operator": ">", "melting point / °C": 260}
{"Compound": "O=C1Nc2ncc(/C=C/C(=O)N3CC4C=C(c5ccncc5)CC4C3)cc2CN2CCOCC12 (stereo not shown) [compound 80]", "Prefix Operator": "=", "melting point / °C": 212}
{"Compound": "Cc1cncc(C(=O)Nc2ccc(/C=C/C(=O)N3CC4C=C(c5ccncc5)CC4C3)cn2)c1 (stereo not shown) [compound 8]", "Prefix Operator": "=", "melting point / °C": 202.82}
{"Compound": "CN1CC(=O)Nc2ncc(/C=C/C(=O)N3CC4C=C(c5ccccc5)CC4C3)cc2C1 (stereo not shown) [compound 50]", "Prefix Operator": "=", "melting point / °C": 202}
{"Compound": "COc1ccccc1N1C[C@H]2CN(C(=O)/C=C/c3cnc4c(c3)CN(C)CC(=O)N4)C[C@H]2C1 [compound 59]", "Prefix Operator": "=", "melting point / °C": 114}
{"Compound": "Cc1occc1C(=O)Nc1ccc(/C=C/C(=O)N2CC3C=C(c4ccccc4)CC3C2)cn1 (stereo not shown) [compound 11]", "Prefix Operator": "=", "melting point / °C": 140}
{"Compound": "COc1cncc(C(=O)Nc2ccc(/C=C/C(=O)N3CC4C=C(c5ccncc5)CC4C3)cn2)c1 (stereo not shown) [compound 30]", "Prefix Operator": "=", "melting point / °C": 142}
{"Compound": "Cn1nccc1C1=CC2CN(C(=O)/C=C/c3cnc4c(c3)COCC(=O)N4)CC2C1 (stereo not shown) [compound 56]", "Prefix Operator": "=", "melting point / °C": 149}
